MEASURED_PROPERTY: melting point

The recorded melting point for entry `Cn1cc(Br)cc(N)c1=O` equals 104 to 105 °C

In plain terms, `CCOC(=O)C(=NOC)c1noc(C(Cl)(Cl)Cl)n1` has a documented melting point of 143 to 146 °C

The compound `CCCCNC(=O)NS(=O)(=O)c1ccccc1S(=O)(=O)C(C)C` showed melting point equal to 164 to 166 °C

Reported melting point ( `CS(=O)(=O)c1ccc(-c2ccccc2N2CCCCC2)cc1` ) = 140 °C

GET /value?item= `COc1ccc(C(=O)Nc2c(C)c(C)c3oc(C)c(-c4ccc(F)cc4)c3c2C)cc1` &field=melting point returns 225 to 227 °C

The compound listed as `COC(=O)c1sc(C)c2nc(OC)n(Cc3ccc(-c4ccccc4C#N)cc3)c12` has a reported melting point of 181 to 182 °C

Reported melting point for O=C(O)C1=Cc2ccccc2SC1C(F)(F)F (stereo not given) was 187 to 190 °C

Item: `COC(=O)c1nc(N)ccc1Oc1nc(OC)cc(OC)n1` | melting point: 67 to 69 °C

Please fill in: melting point reported for O=C(CCCCC(=O)NCC1Cc2c1ccc(OCc1ccccc1)c2OCc1ccccc1)NCCc1ccccc1 (stereo not given) = 152 to 155 °C

Per the records, this compound ( `CCOC(=O)/C=C(C)/C=C/C1=C(c2ccc3c(c2)C(C)(C)CCC3(C)C)CCC1` ) has melting point equal to 83 to 86 °C

====

MEASURED_PROPERTY: melting point

Field melting point (entry `CC(=O)c1c(-c2ccc(F)cc2)sc(-c2ccncc2)c1C` ) reads 116 to 118 °C

Notebook: `CCOCc1cc2cc(Cl)ccc2oc1=Nc1cccc(OC)c1` , melting point read as 96.5 to 97.5 °C

Reported melting point ( `CN(C(=O)Cc1ccccc1)c1nn(C)c(-c2ccc(F)cc2)c1-c1ccncc1` ) = 170 to 171 °C

Measured melting point, `Nc1cc(N2CCCC2=O)c(Cl)cc1Cl` : 168 to 170 °C

Entry under test: `CN(C)Cc1cc(C(=O)c2cccn2C)cc(C(C)(C)C)c1O` . Its melting point was 174 °C

The value of melting point measured for the molecule `CC1(C)C(=O)Nc2ccc(-c3cccc(C#N)c3)cc21` turned out to be 200 to 202 °C

molecule `CS(=O)(=O)Cc1cnc2ccsc2c1O` , melting point observed: > 300 °C

The reported melting point of the molecule CCOC(=O)C1=C(c2ccc(-c3ocnc3C)cc2)NC(C)=C(C(=O)Nc2ccccn2)C1c1ccccc1Cl (stereo unspecified) was 176 to 179 °C

The measured melting point associated with COc1ccc2nccc(NC(=O)N3CCN(CC(O)c4ccc5c(c4)NC(=O)CO5)CC3)c2n1 (stereo unspecified) reads 231 to 233 °C

Reported melting point of `CC1(C)CC(OC(=O)c2ccccc2)CC(C)(C)N1CC#N` : 147 °C

# melting point of `CN1C(=O)CC[C@]2(C)c3ccc(C=Cc4ccccc4)cc3CC[C@@H]12` = 173 to 175 °C

Value of melting point reported for the molecule `CCc1nn(C2CCCC2)c2c1CCNC2=O` is 152 to 153 °C

Noted for `c1ccc(COc2ccc3c(ccn3Cc3ccncc3)c2)cc1` : its melting point reads 124 to 125 °C

# melting point of Cc1c2n(c3ccccc13)C(=O)C(C(O)c1ncn(C(c3ccccc3)(c3ccccc3)c3ccccc3)c1C)CC2 (stereo unspecified) = 153 to 169 °C

Lab note: `O=[N+]([O-])c1ccc2[nH]cc(CCCI)c2c1` gave melting point of 95 to 98 °C

Summary for this molecule, `N#CC1(CCCCCCCCCCCCC2(C(=O)O)CC2)CC1` : melting point is 44.4 to 46.9 °C

According to the records, this molecule CC(C)(C)C1CCc2c(c3ccccc3n2CC[N+]2([O-])CCCC2)C1 (stereo unspecified) displays melting point of 163 to 165 °C

Per the record, `O=[N+]([O-])c1ccc2nc(-c3cccs3)oc2c1` has melting point of 208 to 210 °C

Item: `O=C(CSCCOc1ccccc1)NNC(=O)c1ccc(Cl)nc1` | melting point: 136 to 138 °C

// melting point lookup, molecule = `CC(C)(O)CCc1cc(F)c2ncc(C(=O)NCc3ccc(Cl)cc3)c(O)c2c1` , result: 219 to 222 °C

Measured melting point, `CNC(=O)C[C@@H](NC(=O)OCc1ccccc1)C(C)C` : 190 to 191 °C
